tested_target: T1, DOF5.8-ZF (Arabidopsis thaliana, UniProt Q9FGD6 24-83)
T1 sequence: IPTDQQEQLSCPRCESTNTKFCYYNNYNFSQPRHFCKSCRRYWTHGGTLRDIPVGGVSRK
protocol_details: MST
observation_type: Kd (nM)
Express the result in nM but write the number alone.

Please indicate Kd recorded for Double-motif probe, fluorescein (dsDNA) DNA 1: AAATAATCATAAAGTATTAAAGTAATATATAC DNA 2: GTATATATTACTTTAATACTTTATGATTATTT
2500
